Target: Sigma non-opioid intracellular receptor 1 (Homo sapiens)
Sequence (Q99720 whole entry): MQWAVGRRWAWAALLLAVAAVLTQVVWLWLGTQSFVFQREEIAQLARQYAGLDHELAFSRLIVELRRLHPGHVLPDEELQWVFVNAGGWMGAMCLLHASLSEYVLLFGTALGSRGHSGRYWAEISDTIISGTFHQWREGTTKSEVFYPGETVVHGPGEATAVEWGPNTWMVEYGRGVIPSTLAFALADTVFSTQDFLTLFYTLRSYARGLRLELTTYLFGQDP
Assay: Displacement of [3H] Pentazocine from sigma 1 receptor in HEK293 cell membrane
Assay type: cell membranes
Settings: read-out: Ki
pKi: −log10 of the molar value.
result type: pKi

>  <compound>
Fc1ccc(COC2CCN(Cc3cc4ccc(Cl)cc4[nH]3)CC2)cc1F

>  <number>
8.09

$$$$
>  <compound>
Cc1c(Cl)cccc1NC(=O)CN1CCC2(CCCN2Cc2ccc(F)c(F)c2)C1 (centres undefined)

>  <number>
7.85

$$$$
>  <compound>
FC(F)(F)c1cccc(COC2CCN(Cc3cc4ccc(Cl)cc4[nH]3)CC2)c1

>  <number>
7.85

$$$$
>  <compound>
Cn1cnc2cc(CN3CCC(OCc4cccc(C(F)(F)F)c4)CC3)ccc21

>  <number>
7.92

$$$$
